melting point: recorded values

Some solved entries appear below for comparison.
[[record]]
molecule = "CCn1cc(C2(c3cccc(-c4cccnc4F)c3)N=C(N)N(C)C2=O)cc1C(=O)C1CCCCC1 (centres unmarked) [Example 171]"
recorded_result = "94 to 100 °C"

[[record]]
molecule = "CCC(=O)c1cc(C2(c3cccc(-c4ccc(F)c(Cl)c4)c3)N=C(N)N(C)C2=O)cn1CC(F)(F)F (centres unmarked) [Example 205]"
recorded_result = "107 to 108 °C"

[[record]]
molecule = "CN1C(=O)C(c2cccc(-c3cncnc3)c2)(c2ccn(CC(F)(F)F)c2)N=C1N (centres unmarked) [Example 54]"
recorded_result = "103 to 105 °C"

[[record]]
molecule = "CCCn1cc(C2(c3cccc(-c4cncnc4)c3)N=C(N)N(C)C2=O)cc1C#N (centres unmarked) [Example 229]"
recorded_result = "165 to 166 °C"

[[record]]
molecule = "COC(=O)c1cc(C2(c3cccc(-c4cccc(OC)c4)c3)N=C(N)N(C)C2=O)cn1CCF (centres unmarked) [Example 196]"
recorded_result = "121 to 124 °C"

[[record]]
molecule = "CCCNC(=O)c1cc(C2(c3cccc(-c4cccnc4F)c3)N=C(N)N(C)C2=O)cn1CC (centres unmarked) [Example 159]"
recorded_result = "120 to 123 °C"

[[record]]
molecule = "CCCC(=O)Nc1cccc(C2(c3cc(C(=O)CC)n(CC)c3)N=C(N)N(C)C2=O)c1 (centres unmarked) [Example 129]"
recorded_result = "201 to 205 °C"


Problem: Recorded melting point for CCC(=O)c1cc(C2(c3cccc(-c4cccnc4F)c3)N=C(N)N(C)C2=O)cn1CC(F)(F)F (centres unmarked) [Example 200] , please?
Result: 108 to 110 °C

* * *

For human BACE1 (Homo sapiens, UniProt P56817), measured IC50 is reported for the entries below.

Problem: What is its IC50 for human BACE1 (Homo sapiens, UniProt P56817)? Entry: CN1C(=O)C(c2cccc(-c3cccnc3F)c2)(c2cnn(Cc3ccccc3)c2)N=C1N (centres unmarked)
Result: 10 to 100 nM

Problem: One more compound: Cc1nn(CC(F)(F)F)cc1C1(c2cccc(-c3cccnc3F)c2)N=C(N)N(C)C1=O (centres unmarked)
Result: 110 to 1000 nM

Problem: One more compound: CCC(=O)c1cc(C2(c3cccc(-c4cccc(Cl)c4)c3)N=C(N)N(C)C2=O)cn1CC(F)(F)F (centres unmarked)
Result: 10 to 100 nM

Problem: One more compound: CCN(CC)Cc1cc(C2(c3cccc(-c4cccnc4F)c3)N=C(N)N(C)C2=O)cn1CCF (centres unmarked)
Result: > 1000 nM

* * *

melting point: recorded values

[[record]]
compound = "CN1C(=O)C(c2cccc(-c3cncnc3)c2)(c2cnn(C3CCCC3)c2)N=C1N (stereo not shown)"
result_type = "melting point"
recorded_result = "112 to 115 °C"

[[record]]
compound = "CN1C(=O)C(c2cccc(-c3cccnc3)c2)(c2cnn(CC(F)(F)F)c2)N=C1N (stereo not shown)"
result_type = "melting point"
recorded_result = "202 to 204 °C"

[[record]]
compound = "CCC(=O)c1cc(C2(c3cccc(-c4cccnc4F)c3)N=C(N)N(C)C2=O)cn1Cc1ccccc1 (stereo not shown)"
result_type = "melting point"
recorded_result = "93 to 96 °C"

[[record]]
compound = "CCCOc1cccc(C2(c3cc(C(=O)CC)n(CC)c3)N=C(N)N(C)C2=O)c1 (stereo not shown)"
result_type = "melting point"
recorded_result = "95 °C"

[[record]]
compound = "CCCOc1cccc(C2(c3cccs3)N=C(N)N(C)C2=O)c1 (stereo not shown)"
result_type = "melting point"
recorded_result = "79 to 81 °C"

[[record]]
compound = "COc1cncc(-c2cccc(C3(c4ccsc4)N=C(N)N(C)C3=O)c2)c1 (stereo not shown)"
result_type = "melting point"
recorded_result = "197 °C"

[[record]]
compound = "CN1C(=O)C(c2ccc(F)c(-c3cncnc3)c2)(c2cnn(CC(F)(F)F)c2)N=C1N (stereo not shown)"
result_type = "melting point"
recorded_result = "115 to 117 °C"

[[record]]
compound = "CN1C(=O)C(c2cccc(-c3cc(F)ccc3F)c2)(c2cnn(CC(F)(F)F)c2)N=C1N (stereo not shown)"
result_type = "melting point"
recorded_result = "98 to 100 °C"


Problem: Recorded melting point for CCC(=O)c1cc(C2(c3cccc(OCC4CC4)c3)N=C(N)N(C)C2=O)cn1CC (stereo not shown) , please?
Result: 86 °C

Problem: One more compound: CCOc1cccc(-c2cccc(C3(c4cnn(CC(F)(F)F)c4)N=C(N)N(C)C3=O)c2)c1 (stereo not shown)
Result: 88 to 90 °C

Problem: One more compound: CC(C)n1cc(C2(c3ccc(F)c(-c4cccnc4F)c3)N=C(N)N(C)C2=O)cn1 (stereo not shown)
Result: 115 to 117 °C

Problem: One more compound: CCC(CC)Cn1cc(C2(c3cccc(-c4cccnc4F)c3)N=C(N)N(C)C2=O)cn1 (stereo not shown)
Result: 75 to 80 °C

Problem: One more compound: CN1C(=O)C(c2cccc(-c3cccnc3F)c2)(c2cnn(CC(F)(F)F)c2)N=C1N (stereo not shown)
Result: 104 to 106 °C

Problem: One more compound: CC(C)Cn1cc(C2(c3cccc(-c4cncnc4)c3)N=C(N)N(C)C2=O)cn1 (stereo not shown)
Result: 118 to 122 °C

Problem: One more compound: COC(=O)c1cc(C2(c3cccc(-c4ccc5c(c4)OCO5)c3)N=C(N)N(C)C2=O)cn1CCF (stereo not shown)
Result: 137 to 140 °C

Problem: One more compound: CN1C(=O)C(c2cccc(OCC3CC3)c2)(c2cnn(CCF)c2)N=C1N (stereo not shown)
Result: 70 to 72 °C

* * *

result.type: melting point

Some solved entries appear below for comparison.
[[record]]
molecule = "CN1C(=O)C(c2ccc(OC(F)F)cc2)(c2cnn(CCF)c2)N=C1N (stereo not shown)"
recorded_result = "140 to 142 °C"

[[record]]
molecule = "COC(=O)c1cc(C2(c3ccc(F)c(-c4cccnc4F)c3)N=C(N)N(C)C2=O)cn1CCF (stereo not shown)"
recorded_result = "127 to 128 °C"

[[record]]
molecule = "CCn1cc([C@]2(c3cccc(-c4cccnc4F)c3)N=C(N)N(C)C2=O)cc1C(C)=O"
recorded_result = "109 to 111 °C"


Could you now look at the following molecule, please?
Problem: Recorded melting point for CN1C(=O)C(c2cccc(-c3cncnc3)c2)(c2cnn(CCC(C)(C)C)c2)N=C1N (stereo not shown) , please?
Result: 93 to 96 °C

* * *

result.type: melting point

Some solved entries appear below for comparison.
[[record]]
compound = "CN1C(=O)C(c2cccc(-c3cccnc3F)c2)(c2cnn(CCC(C)(C)C)c2)N=C1N (centres unmarked)"
result_type = "melting point"
recorded_result = "100 to 103 °C"

[[record]]
compound = "CN1C(=O)C(c2cccc(-c3cncnc3)c2)(c2csc(Cl)c2)N=C1N (centres unmarked)"
result_type = "melting point"
recorded_result = "236 to 240 °C"

[[record]]
compound = "COC(=O)c1cc([C@@]2(c3ccc(F)c(-c4cncnc4)c3)N=C(N)N(C)C2=O)cn1CCF [Example 119B]"
result_type = "melting point"
recorded_result = "186 to 188 °C"

[[record]]
compound = "CN1C(=O)C(c2cccc(-c3cc(C#N)ccc3F)c2)(c2cnn(CC(F)(F)F)c2)N=C1N (centres unmarked)"
result_type = "melting point"
recorded_result = "118 to 120 °C"

[[record]]
compound = "CC(C)COc1cccc(C2(c3ccsc3)N=C(N)N(C)C2=O)c1 (centres unmarked)"
result_type = "melting point"
recorded_result = "70 to 73 °C"

[[record]]
compound = "CCC(=O)c1cc([C@]2(c3ccc(F)c(-c4cccnc4F)c3)N=C(N)N(C)C2=O)cn1CC [Example 183A]"
result_type = "melting point"
recorded_result = "114 to 116 °C"

[[record]]
compound = "CN1C(=O)C(c2cccc(-c3cncnc3)c2)(c2cnn(CCC3CCCCC3)c2)N=C1N (centres unmarked)"
result_type = "melting point"
recorded_result = "102 to 105 °C"


Could you now look at the following compound, please?
Problem: Recorded melting point for CC(C)NCc1cc(C2(c3cccc(-c4cccnc4F)c3)N=C(N)N(C)C2=O)cn1CCF (centres unmarked) , please?
Result: 98 to 99 °C

* * *

result.type: melting point

[[record]]
molecule = "CCCCCC(=O)c1cc(C2(c3cccc(-c4cccnc4F)c3)N=C(N)N(C)C2=O)cn1CC (stereo not shown)"
result_type = "melting point"
recorded_result = "71 to 73 °C"


Problem: Recorded melting point for CN1C(=O)C(c2ccsc2)(c2cccc(-c3cccnc3F)c2)N=C1N (stereo not shown) , please?
Result: 213 °C

Problem: One more molecule: CCn1cc(C2(c3ccc(F)c(-c4cncnc4)c3)N=C(N)N(C)C2=O)cn1 (stereo not shown)
Result: 120 to 121 °C

Problem: One more molecule: CCC(=O)c1cc(C2(c3cccc(-c4cccc(OC)c4)c3)N=C(N)N(C)C2=O)cn1CC(F)(F)F (stereo not shown)
Result: 103 to 105 °C
